# maps each entry to its kon
Molecular target: T1, hPD-L1-His (human, UniProt Q9NZQ7 19-238)
T1 construct: Bought protein; also called hPD-L1-His (manufactured by Edison); not shown: His tag
T1 sequence (Q9NZQ7 19-238 limits assumed): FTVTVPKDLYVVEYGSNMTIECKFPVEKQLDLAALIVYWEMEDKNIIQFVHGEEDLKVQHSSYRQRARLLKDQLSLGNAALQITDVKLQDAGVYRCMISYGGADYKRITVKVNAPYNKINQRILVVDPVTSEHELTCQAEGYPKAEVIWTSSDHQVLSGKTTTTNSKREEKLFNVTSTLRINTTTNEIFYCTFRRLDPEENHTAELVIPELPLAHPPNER
Experiment: SPR (Biacore T200), antibody on Protein A chip, hPD-L1-His injected, 1:1 fit
Provide the reading as a plain figure in M⁻¹ s⁻¹.

Examples with their reported kon follow.
7E4-H2K2-IgG1 (antibody, V domains shown) VH: QVQLVQSGAEVKKPGASVKVSCKASGFKFTDYAIHWVRQAPGKSLEWMGVISIYYGEASYNQKFKDRVTLTVDTSASTAYMELSSLRSEDTAVYYCAREDYYGSSSYFDYWGQGTLVTVSS VL: DNVLTQSPSFLSASVGDRVTMTCSASSSVSSSYLHWYQQKPGASPKPLIHRTSNLASGVPSRFSGSGSGTEFTLTISSLQPEDFATYYCQQWSGYPYTFGGGTKLEIK: 123000
3F2-H3K3-IgG1 (antibody, V domains shown) VH: DVQLQESGPGLVKPSETLSLTCTVSGYSITSGYNWHWIRQFPGNGLEWMGYIHHSSITNYNPSLKSRITISRDTSKNQFSLKLSSVTAEDTATFYCAREGYDYDWFAYWGQGTLVTVSS VL: DIVLTQSPDTQSVTPKESVTLSCRASQSISNNLHWYQQKSHESPKLLIKYASQSISGIPSRFSGSGSGTDFTLTINSVEAEDFAMYFCQQSKSWPFTFGQGTRLEIK: 1.32e+06
08-3F2-mHvKv-IgG1 (antibody, V domains shown) VH: DVQLQESGPDLVKPSQTLSLTCTVTGYSITSGYNWHWIRQFPGNKLEWMGYIHHSSITNYNPSLKSRISITRDTSKNQFFLQLSSVTTEDTATFYCAREGYDYDWFAYWGQGTLVTVSA VL: DIVLAQSPATLSVTPGDSVSLSCRASQSISNNLHWYQQKSHESPRLLIKYASQSISGIPSRFSGSGSGTDFTLSINSVETEDFGMYFCQQSKSWPFTFGSGTRLEIK: 1.62e+06
7E4-H3K2-IgG1 (antibody, V domains shown) VH: QVQLVQSGAEVVKPGASVKISCKGSGFKFTDYAIHWVRQAPGKSLEWMGVISIYYGEASYNQKFKDKVTLTVDTSASTAYMELSSLRSEDTAIYYCAREDYYGSSSYFDYWGQGTLLTVSS VL: DNVLTQSPSFLSASVGDRVTMTCSASSSVSSSYLHWYQQKPGASPKPLIHRTSNLASGVPSRFSGSGSGTEFTLTISSLQPEDFATYYCQQWSGYPYTFGGGTKLEIK: 155000

Req: Which value of kon has been reported for 6A11-H1K4-IgG1 (antibody, V domains shown) VH: EVQLVESGGGLVQPGGSLRLSCAASGFTFSSFGMHWVRQAPGKGLEWVSYISSGSNTIYYADTVKGRFTISRDNAKNSLYLQMNSLRAEDTAVYYCARNGYDGWYAMDYWGQGTTVTVSS VL: EIVLTQSPATLSASPGERATLSCSASSSVSYIHWFQQKPGQSPRRWIYDTSKLASGIPARFSGSGSGTSYTLTISSMEPEDAATYYCQQWSTNPFTFGQGTKLEIKR in the records?
Resp: 149000

Data origin: patent US20220073621A1
